Tested on: Streptococcus suis P1/7
Experiment: percent growth relative to DMSO control; higher = less growth inhibition
Settings: 10 µM; incubation time 18 h
This listing pairs compounds with measured percent growth.
measured_attribute: percent growth

1) COC(=O)c1c(NC(=O)c2cc3ccccc3oc2=O)sc2c1CCN(Cc1ccccc1)C2 = 149%
2) Nc1ncnc2[nH]nc(Cc3cccc4ccccc34)c12 = 66.1%
3) OC[C@H]1O[C@@H](n2c3ccc(Cl)cc3c3c(-c4cc5ccccc5o4)ncnc32)C(O)[C@H]1O (stereo partly drawn) = 74.8%

====

System: Streptococcus suis HE06
Assay: percent growth relative to DMSO control; higher = less growth inhibition
Details: 10 µM; incubation time 18 h
Class YES: percent growth at least 90%. Class NO: percent growth below 90%.

1) Cc1ccc2cc(C3NC(=O)c4ccccc4N3)c(Cl)nc2c1 (configuration not stated) = NO
2) N#Cc1nc(-c2ccccc2)oc1S(=O)(=O)c1ccc(Cl)cc1 = YES
3) Cc1cc(C)n2nc(C(=O)Nc3cc(C(F)(F)F)ccc3N3CCOCC3)nc2n1 = YES
4) COc1cccc(OCC(=O)c2ccc(Br)cc2)c1 = NO
5) CCn1ncc2c(NC3CCOCC3)c(CNC(=O)c3ccnn3C)c(C)nc21 = YES
6) N#Cc1ccc(-c2cnc(N)c(-c3ccc(C(N)=O)cc3)n2)cc1 = YES
7) O=C(N[C@H](Cc1ccccc1)C(=O)Nc1ccccc1N1CCOCC1)c1cccs1 = YES
8) O=C(Nc1nc(-c2ccccn2)cs1)C1CC1c1ccccc1F (configuration not stated) = NO
9) Cc1cnc(CCNC(=O)c2cc(-c3ccc(Cl)cc3)cs2)[nH]1 = NO
10) CC(C(=O)Nc1ccc2oc(-c3ccncc3)nc2c1)c1ccccc1 (configuration not stated) = NO
11) Nc1ncnc2c1ncn2[C@@H]1O[C@H](COS(=O)(=O)NC(=O)c2ccccc2O)[C@@H](O)[C@H]1O = YES
12) Cc1cc(C(=O)Nc2ccc(-c3ccccc3)cc2)no1 = YES
13) O=C1COCc2ccc(Br)cc2N1Cc1ccc(C(F)(F)F)cc1 = NO
14) CCOc1ccc(OCC(=O)Nc2cc(C)cc(C)c2)cc1 = YES
15) CN(C)CCNC(=O)N1CCCN(c2ncnc3cc(-c4ccccc4)sc23)CC1 = YES
16) O=C(Nc1ccc(N2CCNCC2)cc1)c1ccn2ncc(-c3cccc(Cl)c3)c2n1 = YES
